Attribute: LD50
- method: intravenous LD50 in mice
- conditionsUsed: mouse, in vivo, estimated

Below are worked cases with known answers.
Please report the recorded LD50 for C[C@@H]1C[C@H](N)[C@@H](O)[C@@H](O[C@@H]2[C@@H](O)[C@H](O[C@H]3O[C@H](CN)CC[C@H]3N)[C@@H](N)C[C@H]2NC(=O)[C@@H](O)CCN)O1 [AHB-4",6"-DDKB] . > 80 mg/kg

Which LD50 value is on record for C[C@H]1O[C@H](O[C@@H]2[C@@H](O)[C@H](O[C@H]3O[C@H](CN)CC[C@H]3N)[C@@H](N)C[C@H]2N)[C@H](O)[C@@H](N)[C@@H]1O [6"-DDKB, 6"-deoxydibekacin] ? > 60 mg/kg

What LD50 value was documented for this molecule, C[C@H]1O[C@H](O[C@@H]2[C@@H](O)[C@H](O[C@H]3O[C@H](CN)CC[C@H]3N)[C@@H](N)C[C@H]2NC(=O)[C@@H](O)CCN)[C@H](O)[C@@H](N)[C@@H]1O [AHB-6"-DDKB] ? > 80 mg/kg

---
Recorded LD50 for C[C@@H]1C[C@H](N)[C@@H](O)[C@@H](O[C@@H]2[C@@H](O)[C@H](O[C@H]3O[C@H](CN)CC[C@H]3N)[C@@H](N)C[C@H]2N)O1 [4",6"-DDKB, 4",6"-dideoxydibekacin] , please? > 60 mg/kg
